# Tested on: HL-60
# protocol.text: NCI tumour cell line growth inhibition, 48 h
Active and inactive are the calls of the source. Rule as the data show it: active = GI50 up to about 1.1 µM and inactive = higher.
Select the correct class. Options are label 1 for active, label 0 for inactive and nothing else.

Please state the recorded outcome for this compound: CC1CC(C)C2=NOS3=C2C1=NO3 (stereo not drawn)
label 0

// param item: O=C(NNS(=O)(=O)c1ccccc1)c1csc(NC(=S)NC2CCCCC2)n1 ; yields the recorded call
label 0

Please let me know the test result on file for CC(C)NCC(O)COC(=O)c1cccs1 (stereo not drawn) .
label 0

Test call for this compound, please: O=[N+]([O-])c1cc([N+](=O)[O-])c(C(Cl)C(Cl)c2ccccc2)cc1C(Cl)C(Cl)c1ccccc1 (stereo not drawn)
label 0

What did the test return for CCOC(=O)N1C2C=C(C)C(ON2C(=O)c2ccccc2)C2C(C)C(=O)N21 (stereo not drawn) ?
label 0

Query: recorded result category for CN(C)CN1C(=O)S/C(=C2\C(=O)N(CN(C)C)c3ccccc32)C1=O in this test
label 0

In this assay, the call recorded for O=C(/C=C/c1c[nH]c2ccccc12)c1ccccc1O was what?
label 0

Look up the recorded call for COC(=O)[C@]12CSCN1C(=O)C(C(C)=O)=NN2C(=O)[C@](OC)(c1ccccc1)C(F)(F)F in this test.
label 0

Per the records of this test, what outcome belongs to Cc1ccccc1-n1c(=S)[nH]c2c(sc(=O)n2-c2ccccc2C)c1=O ?
label 0

Give the logged outcome of this assay for the following compound: c1cc(C2N3CCCN2CC3)ccn1 (stereo not drawn)
label 0

Tell me the assay call for c1ccc(Nc2nnc(CSc3nc(-c4ccccc4)c(-c4ccccc4)[nH]3)s2)cc1 please.
label 0

# fetch the recorded call for Cn1nc(-c2ccccc2)c(C(=O)/C=C/c2ccc(F)cc2)c(N2CCCCC2)c1=O here
label 1

Assay result, entry Nc1nc(N)c2ncn(Cc3ccccc3CCl)c2n1 — outcome?
label 1

What is the recorded call for this compound in the test? CC(C)=CCC/C(C)=C/CC/C(C)=C/CSc1ccccc1C(=O)O [SALIRASIB]
label 0

// outcome(item) with item = NC(=O)c1ncn2c1NC(=O)CC2
label 0

How did this test come out for COC(=O)/C(=C/c1ccc(OC)cc1)C(C(=O)O)=C1CCCCC1 ?
label 0

Hi, sorry to bother you, what did the test record for COc1ccccc1-n1c(=O)n(C)c(=O)n1C(C)(C)C ?
label 0

State the result this test recorded for CCOC(=O)c1c(O)nc2cccc3c2c1-c1cccnc1S3 .
label 0

Hi team, can someone confirm the assay call for O=[N+]([O-])c1ccc(Cl)c(C2SCc3nc4ccccc4n32)c1 (stereo not drawn) ?
label 0

Entry O=c1c(O)c(-c2ccccc2)n(O)c2ccc(Cl)cc12 : call = ?
label 0

Outcome logged for C[C@@H]1C(=O)CC2C(C)(C)CCC[C@]2(C)[C@@]12CC[C@]1(C=COC1)O2 (stereo partly drawn) in this assay:
label 0

Returns: the outcome recorded for N/C(CSCCSC/C(N)=N/O)=N\O in this assay.
label 0

Could you kindly confirm the outcome this assay logged for COc1cccc2c1/c(=C/c1ccc(N(C)C)cc1)c1cc(-c3ccccc3)[n+](C)n12 ?
label 1

In this assay, the call recorded for CC(=O)O[C@H]1C(=O)[C@@]2(C)[C@H]([C@H](OC(=O)c3ccco3)[C@]3(O)C[C@H](OC(=O)[C@H](O)[C@@H](NC(=O)c4ccccc4)c4ccccc4)C(C)=C1C3(C)C)[C@]1(OC(C)=O)CO[C@@H]1C[C@@H]2O was what?
label 1

What is the recorded call for this compound in the test? CC(=O)Oc1ccc(/C=C/C(=O)OCCOC(=O)/C=C/c2ccc(OC(C)=O)c(OC(C)=O)c2)cc1OC(C)=O
label 0

Tell me the recorded outcome of this test for CNC(=O)C1CCc2nnc(-c3ccccc3)n21 (stereo not drawn) .
label 0

Could you check what this test reported for CCOc1ccc2[nH]c3c(C)c4cc[n+](C)cc4c(C)c3c2c1 ?
label 0

Hi, do you know how CC1C2C=CC1C(c1c3ccc(=O)c(O)c-3oc3c(O)c(O)ccc13)C2C(=O)O (stereo not drawn) came out in this test?
label 0
